Target: VHL (Homo sapiens (Human))
Experiment: VHL fluorescence polarization (FP) competition assay
Assay type: binding
Conditions: 1% in DMSO
Kindly apply the following: criterion met if IC50 is less than 0.7 µM, criterion not met in every other case.

For orientation, consider the following solved cases.
[in] Please let me know if CSC[C@@H](C(=O)N1C[C@H](O)C[C@H]1C(=O)NCc1ccc(-c2scnc2C)cc1)N1Cc2ccccc2C1=O shows IC50 below 0.7 µM.
[out] criterion not met

[in] Please let me know if Cc1ncsc1-c1ccc(CNC(=O)[C@@H]2C[C@@H](O)CN2C(=O)[C@H](C(C)C)N2Cc3cccc(C#N)c3C2=O)cc1 shows IC50 below 0.7 µM.
[out] criterion met

[in] Please let me know if Cc1ncsc1-c1ccc(CNC(=O)[C@@H]2C[C@@H](O)CN2C(=O)[C@H](C(C)C)N2Cc3cccc(Cl)c3C2=O)cc1 shows IC50 below 0.7 µM.
[out] criterion not met

[in] Please let me know if Cc1ncsc1-c1ccc(CNC(=O)[C@@H]2C[C@@H](O)CN2C(=O)C(N)C(F)(F)F)cc1 (stereo partly shown) shows IC50 below 0.7 µM.
[out] criterion not met

[in] Please let me know if CC(=O)O[C@@H](C)C(=O)N1C[C@H](O)C[C@H]1C(=O)NCc1ccc(-c2scnc2C)cc1 shows IC50 below 0.7 µM.
[out] criterion not met

New cases:
[in] Please let me know if CC(C)[C@@H](C(=O)N1C[C@H](O)C[C@H]1C(=O)NCc1ccc(-c2scnc2C2CC2)cc1)N1Cc2ccccc2C1=O shows IC50 below 0.7 µM.
[out] criterion not met

[in] Please let me know if CC[C@H](C)[C@@H](C(=O)N1C[C@H](O)C[C@H]1C(=O)NCc1ccc(-c2scnc2C)cc1)N1Cc2ccccc2C1=O shows IC50 below 0.7 µM.
[out] criterion met
